- procedure_details: NCI Yeast Anticancer Drug Screen. Data for the mlh1 rad18 strain (AID 175)
- measurement_context: S. cerevisiae mlh1 rad18 strain growth inhibition; at 50.0 µM (retest, dose inferred, filed as 5.0)
About 79,000 compounds went through this panel and 15% of them were active in at least one assay; those are over-represented in the sample as a whole. Calls of active or inactive are those of the source. No stated cut-off is given here; in the data, active means growth inhibition above about 70%; inactive means the rest.
// allowed return values: active, inactive

Name the outcome recorded for `CC(C)n1nnc2c3ccccc3c3ccccc3c21` in the assay.
inactive

Field entry: `O=P(O)(CN1CCN(CP(=O)(O)c2ccccc2)CCN(CP(=O)(O)c2ccccc2)CC1)c1ccccc1`
inactive

What about `CC(=O)N1CCCC2=C1CCCCCCCCCC2` ?
inactive

Also, `Cc1ccc(NC(Nc2ccc(C)cc2C)=C(/C=C(\Cl)[N+](=O)[O-])[N+](=O)[O-])c(C)c1` please.
active

Now consider `Oc1cc(Br)cc2cc(Br)cnc12` .
active

Okay, and N#CCCN(CCC#N)c1ccc(C(Sc2ccccc2)C(NC(=O)c2cc([N+](=O)[O-])ccc2Cl)C(=O)Sc2ccccc2)cc1 (stereo not drawn) ?
active

Could you do the same for `CCOC(=O)/C(C#N)=C/c1coc2cc(C)cc(C)c2c1=O` , please?
active

Similarly, `CCOc1cc2c(cc1O)CC[C@@H]1[C@@H]2CC[C@]2(C)[C@@H](O)CC[C@@H]12` ?
inactive

Thanks! And `CCOC(=O)c1c(C)c2c(n1C)CCc1sc(N)nc1-2` ?
inactive

What do you have for `O=C(N/C(=C/c1ccc(Cl)cc1Cl)c1nc2ccccc2s1)c1ccccc1` ?
active

What do we get for CSC1=Nc2ccccc2SC(c2ccccc2)C1c1ccccc1 (stereo not drawn) ?
inactive

Try `N=c1ccc2c(c1)[nH]c1c3ccccc3[nH]c3cccc2c31` next.
active

Now consider `S=C(NC/C(Br)=C/Br)Nc1cccc2ccccc12` .
active

Would you kindly repeat that for `Cn1c(=O)ccc2cc(C(=O)c3ccccc3)ccc21` ?
inactive

Entry to check: `O=C1/C(=C(/Br)I)c2ccccc2-c2ccccc21`
active

Another compound: `CC(=O)NS(=O)(=O)c1ccc(N=Cc2cc(Cl)cc(Cl)c2O)cc1`
active

And what about the compound `O=C1C=CC(=O)N1CCc1ccccc1` ?
active

Here is the next compound: `NNc1cccc(C(F)(F)F)c1`
active

Same question for `CC(C)c1ccc2c(c1)CC[C@H]1[C@](C)(C(=O)O)CCC[C@]21C` please.
active

Now consider `O=C(O)CCC(=O)NCCNC(=O)CC(=O)O` .
inactive

Same read-out for COc1ccc(C(=O)C2Cc3c(ccc4ccccc34)OC2=O)cc1 (stereo not drawn) ?
inactive

Cool, now Cc1ccc(N2C(N)=C(C#N)C(C#N)(C#N)C2c2ccccc2)cc1 (stereo not drawn)
active

Now give it for `O=[N+]([O-])c1ccc(O)c(C=Nc2ccccc2)c1` too.
inactive

Next compound up: `O=[N+]([O-])c1ccc(Sc2ccsc2)c([N+](=O)[O-])c1`
active

Please give the result for `CN(C)c1ccc(C2(c3ccc(N(C)C)cc3)OC(=O)c3ccccc32)cc1` too.
inactive

For `COc1ccc2c(c1)CCc1c(CO)c(COC(=O)NC(C)C)n(C)c1-2` then?
active

# repeat for `O=C1c2ccc(S(=O)(=O)O)cc2C(=O)c2ccc(S(=O)(=O)O)cc21`
inactive

Now the same for `Cc1cc(NC(=S)SCc2ccc3c(c2)OCO3)ccc1Cl`
active

Ok, now `CCOC(=O)CC1=NC(=Nc2ccc(Cl)c(Cl)c2)SC1`
active

Proceed to `CCOC(=O)Cc1csc2[n+]1C(=O)/C(=C\c1cccc(Cl)c1Cl)S2`
inactive

Please answer likewise for `O=[N+]([O-])c1ccc(C=NC2CCCCC2)c([N+](=O)[O-])c1`
active

Okay, and `Oc1c(Br)cc(Br)c2cccnc12` ?
active

Repeat for the following compound: `CCCCCCCCC(=O)Cl`
inactive

Next record, please: `C(=N\Nc1c2ccccc2nc2ccccc12)/c1ccc2c(c1)OCO2`
active

Same read-out for COC1OC(=O)CC1C1CC=C2C3CCC4CC(O)CCC4(C)C3CCC21C (stereo not drawn) ?
active

Queued: `COc1ccccc1/C=C1\C=Cc2ccccc21`
inactive

Another compound to look at: CC(CCl)OC(=O)Nc1cccc(C(F)(F)F)c1 (stereo not drawn)
active

Input `Cc1ccccc1-n1c(N)c(-c2nc3ccccc3[nH]2)sc1=S`
inactive

Cool, now `Cc1ccc(O)c(N=Nc2ccc(Cl)cc2)c1`
inactive

Next up: `Cc1cc(SCC(=O)c2ccc(Cl)cc2)cc(C)[o+]1`
active

`C1=C(C2=CCCc3ccccc32)c2ccccc2CC1` , same question.
inactive

Okay, and COc1ccc(NC2Oc3cc4c(cc3C(c3cccc(OC)c3OC)C2C)OCO4)cc1 (stereo not drawn) ?
inactive

Also CC12CCC3C(CCC4CC(O)CCC43C)C1CC=CO2 (stereo not drawn) , if possible.
active

Field entry: `Cc1cc(C)nc(/C=C/c2ccccc2)c1`
inactive

Follow-up entry: CC(C)(C)CCCC(C(=O)O)c1ccccc1 (stereo not drawn)
inactive

Then what about the compound `O=[N+]([O-])/C=C/c1cc2ccccc2[nH]1` ?
active

Consider next the compound `Cn1c2nc(-[n+]3ccccc3)nc-2c([O-])n(C)c1=O` in the same way.
inactive

Then what about the compound `CCc1cc2c(c3[nH]ccc13)[C@@H](C)C[C@H]2C` ?
active

====

- procedure_details: NCI Yeast Anticancer Drug Screen. Data for the mec2-1 strain (AID 157)
- measurement_context: S. cerevisiae mec2-1 strain, at 50.0 µM
The panel holds about 79,000 compounds, 15% with a hit somewhere; the sample as a whole holds those more often. The source made the active and inactive calls. No stated cut-off is given here; in the data, active means growth inhibition above about 70%; inactive means the rest.
Outcome field: choose from active, inactive

Lab log entry: `O=c1cc(-c2ccccc2)oc2ccc(-c3ccc4oc(-c5ccccc5)cc(=O)c4c3)cc12` — outcome as called in the assay?
inactive

And Cc1cccc(CC(C)(C)C)c1NC(=O)C(=O)C(C(=O)c1ccc2ccccc2c1)C1OC(=O)c2ccccc21 (stereo not given) ?
inactive

Moving on to `Cn1cnc([N+](=O)[O-])c1S`
inactive

Please answer likewise for `NNc1cccc(C(F)(F)F)c1`
active

Input `N#CC(C#N)=Cc1ccc(Oc2ccccc2)cc1`
active

Then what about the compound N#CCCN(CCC#N)c1ccc(C(Sc2ccccc2)C(NC(=O)c2cc([N+](=O)[O-])ccc2Cl)C(=O)Sc2ccccc2)cc1 (stereo not given) ?
inactive

What about `O=C(Cc1nc2ccccc2s1)Nc1ccc2ccccc2c1` ?
active

Param item: `COc1ccc(CSC(=S)Nc2ccccc2C(F)(F)F)cc1`
active

Would you mind doing `COc1ccc(-c2c3c(cc4cc5c(cc24)OCO5)C(=O)OC3)cc1OC` as well?
active

Here is the next compound: `CN(CCCN(CCO)CCO)C1CC(C)(C)N(O)C(C)(C)C1`
inactive

Okay, and `CSC(C=P(c1ccccc1)(c1ccccc1)c1ccccc1)=Nc1ccccc1` ?
active

Same question, `CNC(=O)c1cc(NC(=O)c2ccc(C(=O)Nc3cc(C(=O)NC)cc(C4=NCCN4)c3)cc2)cc(C2=NCCN2)c1` this time
active

Please give the result for `NC(=S)Nc1cccc(C(F)(F)F)c1` too.
active

What do we get for `CCCCCCc1ccc(O)cc1O` ?
active

And for Cc1ccc2c(c1)C1(SC(C)C(=O)N1c1ccc(Cl)cc1)C(=O)N2CN1CCOCC1 (stereo not given) ?
inactive

Would you kindly repeat that for `Clc1ccnc2c1ccc1c(Cl)ccnc12` ?
inactive

Again, but for `CCc1ccccc1NC1=C(Cl)C(=O)c2ccccc2C1=O`
inactive

Now give it for `Nc1nnc(-c2cc(=O)c3cc(Cl)ccc3o2)s1` too.
inactive

Would you mind doing `Cc1nn(CCO)c(=O)c(C#N)c1C` as well?
inactive

Here is the next compound: `COC(=O)CSC(=S)Nc1ccc(Cl)cc1`
inactive

How about `CSC(=S)NN=C(c1ccccc1)c1ccccc1` ?
inactive

Same question, C=CC1(C)CCC2C(=CCC3C(C)(COC4OC(CO)C(O)C(O)C4O)C(O)CCC23C)C1 (stereo not given) this time
active

Also need COc1cc(C2C(Cl)C(=O)N2NC(=O)c2ccccc2O)cc(OC)c1OC (stereo not given) , thanks.
active

Check `COc1ccc(NS(=O)(=O)c2ccc(F)cc2)cc1` too.
active

// next record `O=C(Nc1ccccc1Cl)c1ccc(Cl)c(Cl)c1`
inactive

Also CC(NC(=O)OC(C)(C)C)C(=O)NC(Cc1ccccc1)C(=O)NCC(=O)Oc1c(Cl)c(Cl)c(Cl)c(Cl)c1Cl (stereo not given) ?
active

Again, but for `COc1ccc(N=Cc2cc(Br)cc(Br)c2O)cc1.COc1ccc(N=Cc2cc(Br)cc(Br)c2O)cc1.[Co]`
active

Then CCOC(=O)c1c(C)[nH]c(C(=O)C(N)C(=O)OCC)c1C (stereo not given) ?
active

What would you report for Clc1ccc(COC(CN2CCOCC2)c2ccccc2)c(Cl)c1 (stereo not given) ?
active

Note, next up: COc1ccc2c(c1)CC[C@@H]1C2CC[C@]2(C)OC(=O)CCC12 (stereo not given in full)
inactive

// query: `CCOC(=O)CSc1c(C(=O)OCC)c(=O)n(-c2ccccc2)c(=S)n1-c1ccccc1`
active

Now try N#CC12CCCC(=O)N1c1ccccc1S2 (stereo not given) .
inactive

Note, next up: `Oc1[nH]c2ccccc2c1N=NC(=S)N1CCCCCC1`
active

Now consider `O=C1c2ccccc2/C=C\C(c2ccccc2)=N/N1c1ccccc1Cl` .
active

How about this compound: `CN(c1ccc(Cl)cc1)S(=O)(=O)c1cccc([N+](=O)[O-])c1`
inactive

Same again, this time with `Clc1ccc(SSN2CCOCC2)cc1`
active

Next: `N=C(N)Cc1ccc(NC(=O)c2ccc(C(=O)Nc3ccc(CC(=N)N)cc3)cc2)cc1`
inactive

What would you report for `CN(C)CCN(C)CCC(=O)/C=C/c1ccccc1` ?
active

What do you have for CC(/C=C/NNC1=NC(c2ccccc2)C(c2ccccc2)=NN1)Sc1ccccc1N (stereo not given) ?
active

Queued: `CC(=O)Nc1ccc(N=Cc2cc(Cl)cc(Cl)c2O)cc1`
active

Entry to check: `CC(=Nc1ccc(S(=O)(=O)c2ccc(N=C(C)N3CCCCC3)cc2)cc1)N1CCCCC1`
inactive

// query: CCCC12C=C(OC)C(=O)C=C1OC(c1ccc3c(c1)OCO3)C2C (stereo not given)
active

Same question for `Cc1ncc(CO)c(C=NCCCCCCN=Cc2c(CO)cnc(C)c2[O-])c1[O-].[Cu+2]` please.
inactive

Also need `O=[N+]([O-])/C(Cl)=C(\Nc1ccccc1)C(Cl)=C(Cl)Cl` , thanks.
active

Consider next the compound `CCOc1c(N=Nc2ccc(Cl)cc2)c(-c2ccccc2)nn1C(=S)S` in the same way.
active
